# TARGET_SYSTEM: DPPIV (Homo sapiens)
# PROCEDURE_DETAILS: DPPIV inhibition constants (Ki) with Tic-Pro-AFC substrate
# Format: biochemical
# EXPERIMENTAL_SETUP: substrate Tic-Pro-AFC
OBSERVED_PROPERTY: pKi
// field semantics: pKi = negative decimal log of concentration (mol/L)

Need pKi, item Ac-Arg-Gly-Gly-DL-boroPro
6.47

----------
# TARGET_SYSTEM: DPPIV (Homo sapiens, UniProt P27487)
# Sequence (P27487 whole entry, species assumed): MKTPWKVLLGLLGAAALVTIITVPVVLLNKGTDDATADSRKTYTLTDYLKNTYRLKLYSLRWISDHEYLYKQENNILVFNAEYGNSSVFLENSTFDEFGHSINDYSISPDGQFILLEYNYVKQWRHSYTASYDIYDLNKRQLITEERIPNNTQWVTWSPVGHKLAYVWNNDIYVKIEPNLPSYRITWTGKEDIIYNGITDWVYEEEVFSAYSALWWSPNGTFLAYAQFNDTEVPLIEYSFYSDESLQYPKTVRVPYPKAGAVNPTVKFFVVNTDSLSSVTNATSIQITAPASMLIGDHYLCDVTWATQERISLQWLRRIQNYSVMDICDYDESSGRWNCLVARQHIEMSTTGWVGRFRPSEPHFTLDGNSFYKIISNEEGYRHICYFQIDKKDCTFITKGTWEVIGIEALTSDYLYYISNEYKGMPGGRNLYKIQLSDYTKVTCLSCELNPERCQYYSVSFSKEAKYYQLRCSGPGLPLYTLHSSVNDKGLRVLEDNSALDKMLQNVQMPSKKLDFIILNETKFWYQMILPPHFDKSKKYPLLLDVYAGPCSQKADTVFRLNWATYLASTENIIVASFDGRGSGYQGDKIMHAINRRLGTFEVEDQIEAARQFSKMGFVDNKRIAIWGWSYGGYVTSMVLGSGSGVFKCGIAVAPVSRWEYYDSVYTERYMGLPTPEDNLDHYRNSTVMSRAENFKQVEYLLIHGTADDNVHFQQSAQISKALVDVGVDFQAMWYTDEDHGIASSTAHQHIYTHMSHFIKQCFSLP
OBSERVED_PROPERTY: pKi
// field semantics: pKi = negative decimal log of concentration (mol/L)

Need pKi, item CC(=O)N[C@@H](CCCNC(=N)N)C(=O)NCCOCCOCC(=O)N[C@H](C)C(=O)N1CCC[C@@H]1B(O)O (single isomer, unassigned) [Ac-Arg-peg-D-Ala-D-boroPro]
4.69
